- Target Under Test: human plasma Kallikrein (Homo sapiens)
- Construct: purchased Stratech, UK
- Sequence (P03952 20-638): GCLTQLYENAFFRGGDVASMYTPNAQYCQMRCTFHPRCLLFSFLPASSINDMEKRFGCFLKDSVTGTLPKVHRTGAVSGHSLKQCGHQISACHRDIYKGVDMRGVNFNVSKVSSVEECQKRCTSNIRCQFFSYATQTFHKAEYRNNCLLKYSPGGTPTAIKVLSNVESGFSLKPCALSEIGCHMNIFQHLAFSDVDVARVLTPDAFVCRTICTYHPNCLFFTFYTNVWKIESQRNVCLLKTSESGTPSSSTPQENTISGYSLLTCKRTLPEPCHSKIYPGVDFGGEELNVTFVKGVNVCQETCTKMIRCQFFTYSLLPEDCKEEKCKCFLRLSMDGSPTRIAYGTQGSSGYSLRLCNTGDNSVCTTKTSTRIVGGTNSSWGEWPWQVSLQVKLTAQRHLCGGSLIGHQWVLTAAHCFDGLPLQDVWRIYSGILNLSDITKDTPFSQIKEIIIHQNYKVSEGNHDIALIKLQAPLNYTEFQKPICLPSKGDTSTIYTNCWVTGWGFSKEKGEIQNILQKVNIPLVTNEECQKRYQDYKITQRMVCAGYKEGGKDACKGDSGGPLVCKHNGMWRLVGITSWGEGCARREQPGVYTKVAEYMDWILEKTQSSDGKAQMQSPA
- Protocol: Functional enzyme inhibition assay with fluorogenic substrate Z-PheArg-AMC, human plasma Kallikrein
- Type: biochemical
- Test Settings: Table 3b; ratio of Ki to wild type
Numbered stars: 1 amine (or outer) side, 2 acyl side, 3 side chain; on linkers, the order of the positions; unused ones are H or OH. Bridge positions count the residues as written; N and C are the ends. Square brackets hold non-standard residues; d marks the D form. Peptide text beside a SMILES is read from it. TBMB = c1c(C[*:1])cc(C[*:3])cc1C[*:2]
Entries and their measured F (Kivar/KiWT) follow.

Compound: CC(=O)N[C@H]1CSCc2cc3cc(c2)CSC[C@H](NC(=O)[C@H](CCCNC(=N)N)NC(=O)[C@H](Cc2ccc(O)cc2)NC(=O)[C@@H]2CCCN2C(=O)[C@H](Cc2ccccc2)NC(=O)[C@H](CO)NC1=O)C(=O)N[C@@H](CC(C)C)C(=O)N[C@@H](Cc1c[nH]cn1)C(=O)N[C@H](CCC(N)=O)C(=O)N[C@@H](CC(=O)O)C(=O)N[C@@H](CC(C)C)C(=O)N[C@H](C(N)=O)CSC3 [Ac-(06-34-18) Phe2 Tyr4 D-Gln8] (Ac-CSFPYRCLH[dQ]DLC-NH2; linker 1-7-13 via TBMB)
F (Kivar/KiWT): 755

Compound: CC(=O)N[C@H]1CSCc2cc3cc(c2)CSC[C@H](NC(=O)[C@H](CCCNC(=N)N)NC(=O)[C@H](Cc2ccc(O)cc2)NC(=O)[C@@H]2CCCN2C(=O)[C@H](Cc2ccccc2)NC(=O)[C@H](CO)NC1=O)C(=O)N[C@@H](CC(C)C)C(=O)N[C@H](Cc1c[nH]cn1)C(=O)N[C@@H](CCC(N)=O)C(=O)N[C@@H](CC(=O)O)C(=O)N[C@@H](CC(C)C)C(=O)N[C@H](C(N)=O)CSC3 [Ac-(06-34-18) Phe2 Tyr4 D-His7] (Ac-CSFPYRCL[dH]QDLC-NH2; linker 1-7-13 via TBMB)
F (Kivar/KiWT): 308

Compound: CC(=O)N[C@H]1CSCc2cc3cc(c2)CSC[C@H](NC(=O)[C@H](CCCNC(=N)N)NC(=O)[C@H](Cc2ccc(O)cc2)NC(=O)[C@@H]2CCCN2C(=O)[C@H](Cc2ccccc2)NC(=O)[C@H](CO)NC1=O)C(=O)N[C@@H](CC(C)C)C(=O)N[C@@H](Cc1c[nH]cn1)C(=O)N[C@@H](CCC(N)=O)C(=O)N[C@@H](CC(=O)O)C(=O)N[C@H](CC(C)C)C(=O)N[C@H](C(N)=O)CSC3 [Ac-(06-34-18) Phe2 Tyr4 D-Leu10] (Ac-CSFPYRCLHQD[dL]C-NH2; linker 1-7-13 via TBMB)
F (Kivar/KiWT): 990

Compound: CC(=O)N[C@H]1CSCc2cc3cc(c2)CSC[C@H](NC(=O)[C@H](CCCNC(=N)N)NC(=O)[C@H](Cc2ccc(O)cc2)NC(=O)[C@@H]2CCCN2C(=O)[C@H](Cc2ccccc2)NC(=O)[C@H](CO)NC1=O)C(=O)N[C@H](CC(C)C)C(=O)N[C@@H](Cc1c[nH]cn1)C(=O)N[C@@H](CCC(N)=O)C(=O)N[C@@H](CC(=O)O)C(=O)N[C@@H](CC(C)C)C(=O)N[C@H](C(N)=O)CSC3 [Ac-(06-34-18) Phe2 Tyr4 D-Leu6] (Ac-CSFPYRC[dL]HQDLC-NH2; linker 1-7-13 via TBMB)
F (Kivar/KiWT): 21615

Compound: CC(=O)N[C@H]1CSCc2cc3cc(c2)CSC[C@H](NC(=O)[C@H](CCCNC(=N)N)NC(=O)[C@H](Cc2ccc(O)cc2)NC(=O)[C@@H]2CCCN2C(=O)[C@H](Cc2ccccc2)NC(=O)[C@H](CO)NC1=O)C(=O)N[C@@H](CC(C)C)C(=O)N[C@@H](Cc1c[nH]cn1)C(=O)N[C@@H](CCC(N)=O)C(=O)N[C@H](CC(=O)O)C(=O)N[C@@H](CC(C)C)C(=O)N[C@H](C(N)=O)CSC3 [Ac-(06-34-18) Phe2 Tyr4 D-Asp9] (Ac-CSFPYRCLHQ[dD]LC-NH2; linker 1-7-13 via TBMB)
F (Kivar/KiWT): 9

Data credit: patent US10118947B2
